Known inhibition of a selection of compounds
- target-entity: Serine/threonine-protein kinase DCLK2 (Homo sapiens);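 further: each value is a mean percent inhibition of DCLK2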
- Sequence (whole entry): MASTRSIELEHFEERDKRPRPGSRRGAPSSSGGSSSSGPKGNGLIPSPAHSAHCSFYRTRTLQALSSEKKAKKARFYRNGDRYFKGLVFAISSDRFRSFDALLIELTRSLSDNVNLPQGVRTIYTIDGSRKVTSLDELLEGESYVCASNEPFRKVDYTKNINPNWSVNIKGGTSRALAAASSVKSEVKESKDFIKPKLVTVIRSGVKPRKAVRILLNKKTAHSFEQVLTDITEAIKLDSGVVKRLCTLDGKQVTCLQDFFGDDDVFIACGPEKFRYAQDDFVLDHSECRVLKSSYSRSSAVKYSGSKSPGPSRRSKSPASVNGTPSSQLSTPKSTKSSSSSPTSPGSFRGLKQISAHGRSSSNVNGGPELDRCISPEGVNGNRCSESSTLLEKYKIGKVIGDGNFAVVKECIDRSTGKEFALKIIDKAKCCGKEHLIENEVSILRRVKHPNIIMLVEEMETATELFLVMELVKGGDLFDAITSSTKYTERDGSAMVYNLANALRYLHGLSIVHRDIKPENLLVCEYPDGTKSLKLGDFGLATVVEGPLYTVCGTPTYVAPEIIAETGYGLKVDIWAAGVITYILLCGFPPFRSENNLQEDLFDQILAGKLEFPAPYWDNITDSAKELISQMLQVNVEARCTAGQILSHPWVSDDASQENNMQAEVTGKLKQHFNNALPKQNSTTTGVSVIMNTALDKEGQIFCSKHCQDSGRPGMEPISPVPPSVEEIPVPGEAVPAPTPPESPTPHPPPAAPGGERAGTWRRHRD
- condition-set: at 1 µM
Report the value in % with no unit label.

// solved cases for inhibition follow
{"columns": ["compound", "inhibition, %"],
 "data": [
  ["CCCN(CCS(C)(=O)=O)Cc1ccc(-c2ccc3ncnc(Nc4ccc(OCc5cccc(F)c5)c(Cl)c4)c3c2)o1", 0.44],
  ["CCN1CCC(CC(=O)Nc2n[nH]c3nnc(-c4cccc(F)c4F)cc23)CC1", 1.18],
  ["FC(F)(F)c1cccc(-c2nn3ncccc3c2-c2ccnc(Nc3ccc4c(c3)OCCO4)n2)c1", -0.51],
  ["COC(=O)Nc1nc2ccc(S(=O)(=O)c3ccc(NC(=O)Nc4cc(C(F)(F)F)ccc4F)cc3)cc2[nH]1", -0.64],
  ["Fc1cccc(COc2ccc(Nc3ncnc4sc(-c5ccco5)cc34)cc2Cl)c1", 4.98],
  ["CN1CCC(n2cnc(-c3ccc(F)cc3)c2-c2ccnc(Nc3ccccc3)n2)CC1", -4.09]
]}

inhibition reported for this compound "COc1cc2c(cc1Nc1nc(Nc3ccsc3C(N)=O)c3cc[nH]c3n1)N(C(=O)CN(C)C)CCC2(C)C" : 5.94

Recorded result, "COc1ccc(-c2cc(-c3c[nH]nc3-c3ccccn3)ccn2)cc1" , inhibition: 0.82

Reported inhibition of "CC(C)COC(=O)c1ccc2c(c1)/C(=C/Nc1ccc(S(N)(=O)=O)cc1)C(=O)N2" : 10.2

# inhibition of CC1=C(C(=O)Nc2cc(Cl)c3[nH]ncc3c2)C(c2ccc(C(F)(F)F)cc2)CC(=O)N1 (configuration not stated) = 2.36

Value of inhibition reported for the compound "NC(=O)c1sc(-n2cnc3ccc(C(F)(F)F)cc32)cc1OCc1ccccc1Br" is -0.41

"COc1ccc2[nH]c3c4[nH]c5ccc(OC)cc5c4c4c(c3c2c1)C(=O)NC4=O" yielded inhibition of 2.81
